test system: CCRF-CEM; assay: NCI tumour cell line growth inhibition, 48 h
Active and inactive are the calls of the source. Rule as the data show it: active = GI50 up to about 1.1 µM and inactive = higher.
Collected GI50 values appear next to each entry.
property: GI50

INSERT INTO measurements (compound, property, measured) VALUES
  ('CCC1C(=O)OCc2c1cc1n(c2=O)CCC12OCCO2 (stereo not drawn)', 'GI50', '> 100 µM (inactive)'),
  ('c1coc(-c2nccc3c2[nH]c2ccccc23)c1', 'GI50', '> 100 µM (inactive)'),
  ('Cc1c(Cc2ccccc2)n(COCCCO)c(=O)[nH]c1=O', 'GI50', '> 100 µM (inactive)');

###

Collected GI50 values appear next to each entry.
test system: SF-295; experiment: NCI tumour cell line growth inhibition, 48 h
Calls of active or inactive are those of the source. Rule as the data show it: active = GI50 up to about 1.1 µM and inactive = higher.
property: GI50

INSERT INTO measurements (compound, property, measured) VALUES
  ('CC(C)CC1c2[nH]c3ccccc3c2C[C@H]2C(=O)NC(CCC(=O)OC(C)(C)C)C(=O)N12 (stereo not given in full)', 'GI50', '19.4 µM (inactive)'),
  ('CCOC(=O)c1cn(-c2ccc([N+](=O)[O-])cc2)c(=S)n2c1nc1ccccc12', 'GI50', '45.6 µM (inactive)'),
  ('O=C(Cc1nc2ccccc2s1)C(=O)Nc1ccc(Cl)cc1Cl', 'GI50', '> 100 µM (inactive)'),
  ('CC(=O)CCn1ncc(Cl)c(Cl)c1=O', 'GI50', '19.1 µM (inactive)'),
  ('Nc1ccc(Oc2ccc(C34CC5CC(C3)CC(c3ccc(Oc6ccc(N)cc6)cc3)(C5)C4)cc2)cc1', 'GI50', '10.3 µM (inactive)'),
  ('COC(=O)C1=C(C(=O)OC)C2(C)OC1C(=O)C21CC1 (stereo not given)', 'GI50', '44 µM (inactive)'),
  ('c1ncc(C23C4C5C6C4C2C6C53)[nH]1 (stereo not given)', 'GI50', '> 100 µM (inactive)'),
  ('CN(C)CCNc1ncnc2[nH]c(-c3ccc4ccccc4c3)nc12', 'GI50', '> 100 µM (inactive)'),
  ('CCOc1ccccc1NC(=O)C(=O)C(/C(=N/N)C(=O)OC)c1nc2ccc([N+](=O)[O-])cc2nc1O (stereo not given)', 'GI50', '> 100 µM (inactive)'),
  ('c1ccc(-c2cc(-c3cc(-c4ccccc4)n(-c4ccccc4)n3)nn2-c2ccccc2)cc1', 'GI50', '> 100 µM (inactive)');

###

system: UACC-62; experiment: NCI tumour cell line growth inhibition, 48 h
Activity calls are given as the source filed them. Cut-off read from the data, not from the text of the source: active = GI50 up to about 1.1 µM and inactive = higher.
property: GI50

INSERT INTO assay_data (compound, measured_on, property, measured) VALUES
  ('COC(=O)c1ccc(/C=C2\Oc3cc(O)ccc3C2=O)cc1', 'UACC-62', 'GI50', '> 100 µM (inactive)'),
  ('COc1cccc(-c2cc(O)c3ccccc3n2)c1', 'UACC-62', 'GI50', '4.06 µM (inactive)'),
  ('Oc1ccc(-c2nc(-c3cccnc3)c(-c3ccc(F)cc3)[nH]2)cc1', 'UACC-62', 'GI50', '16 µM (inactive)'),
  ('Cn1cc(S(=O)(=O)NC(=O)Nc2ccc(Cl)cc2)c(=O)c2ccc(F)cc21', 'UACC-62', 'GI50', '3.01 µM (inactive)'),
  ('COc1ccc(C(=O)C(C(=O)C(=O)Nc2ccc(Cl)c(Cl)c2)c2ccc(OC)cc2)cc1 (centres undefined)', 'UACC-62', 'GI50', '> 100 µM (inactive)'),
  ('CC[C@]12C=CCN3CCC4(c5cc(/N=N/c6ccccc6)c(OC)cc5N(C)[C@H]4[C@@](O)(C(=O)OC)[C@@H]1OC(C)=O)[C@@H]32 (some centres undefined)', 'UACC-62', 'GI50', '14.5 µM (inactive)'),
  ('CC(=O)OC1C(=O)C(O)C(C)OC1O[C@@H]1C[C@@]2(C)[C@@H]3CC=C4[C@@H](C[C@H](O)C(=O)C4(C)C)[C@]3(C)C(=O)C[C@]2(C)[C@H]1[C@@](C)(O)C(=O)/C=C/C(C)(C)O (some centres undefined)', 'UACC-62', 'GI50', '3.15 µM (inactive)'),
  ('CN(C)CCNc1ncnc2[nH]c(-c3ccc4ccccc4c3)nc12', 'UACC-62', 'GI50', '> 100 µM (inactive)'),
  ('O=C1CCCCCCCCCCOC(=O)CCCCCCCCCCO1', 'UACC-62', 'GI50', '> 100 µM (inactive)'),
  ('CC(C)=CCC/C(C)=C/CC/C(C)=C/CSc1ccc(Cl)cc1C(=O)O', 'UACC-62', 'GI50', '17.9 µM (inactive)'),
  ('O=C(Nc1ccccc1Cl)c1cc(S(=O)(=O)Nc2n[nH]c(=O)n2-c2ccccc2)c(S)cc1Cl', 'UACC-62', 'GI50', '> 100 µM (inactive)'),
  ('CN1CCn2c(Br)ccc2C1=O', 'UACC-62', 'GI50', '> 100 µM (inactive)'),
  ('O=C(NS(=O)(=O)c1ccccc1)C(Cc1ccccc1)C(Cc1ccccc1)C(=O)NS(=O)(=O)c1ccccc1 (centres undefined)', 'UACC-62', 'GI50', '> 100 µM (inactive)'),
  ('N#C[C@H](c1ccccn1)c1nc2ccccc2nc1Cl', 'UACC-62', 'GI50', '> 100 µM (inactive)'),
  ('N#C/C(C(=S)NCc1ccccc1)=C(/N)N1CCCC1', 'UACC-62', 'GI50', '> 100 µM (inactive)'),
  ('O=C(c1ccccc1)c1cc(Cl)ccc1NCn1nnc2ccccc21', 'UACC-62', 'GI50', '> 100 µM (inactive)'),
  ('COC(=O)c1c2c(c3[nH]c4ccccc4c3c1C(=O)OC)C(=O)C1=C(C2=O)C2(Cl)C(Cl)C(Cl)C1(Cl)C2(Cl)Cl (centres undefined)', 'UACC-62', 'GI50', '1.99 µM (inactive)'),
  ('COC(=O)C(=O)C(C(=O)C(=O)Nc1cccc(C(C)=O)c1)c1nc2ccc([N+](=O)[O-])cc2nc1O (centres undefined)', 'UACC-62', 'GI50', '> 100 µM (inactive)'),
  ('CN(Cc1cnc2nc(N)nc(N)c2n1)c1ccc(C(=O)NCCCS(=O)(=O)O)cc1', 'UACC-62', 'GI50', '> 100 µM (inactive)'),
  ('CC(C)N(C(=O)C12C3(C(=O)C(C)(C)C)C4C5(C#N)C3C1(C(=O)C(C)(C)C)C5C42C(=O)C(C)(C)C)C(C)C (centres undefined)', 'UACC-62', 'GI50', '> 100 µM (inactive)'),
  ('Cc1ccc(C(O)(c2ccc(C)cc2)c2ccccn2)cc1', 'UACC-62', 'GI50', '> 100 µM (inactive)'),
  ('[O-][S+]1c2ccccc2N=C(c2ccc3ccccc3c2)CC1c1ccccc1F (centres undefined)', 'UACC-62', 'GI50', '> 100 µM (inactive)'),
  ('O=C(NCCCCCCCN1CCCCCCC1)C(C1CCCCC1)C1CCCCC1', 'UACC-62', 'GI50', '4.76 µM (inactive)'),
  ('O=S(=O)(c1ccc(Br)cc1)N1CCN(S(=O)(=O)c2ccc(Br)cc2)CC1', 'UACC-62', 'GI50', '> 100 µM (inactive)'),
  ('COC1CC(C)(NC(=O)C(F)(F)F)C2OC(c3ccccc3)OCC2O1 (centres undefined)', 'UACC-62', 'GI50', '> 100 µM (inactive)'),
  ('O=C(O)C1C2CCC(O2)C1C(=O)Nc1cccc2cccnc12 (centres undefined)', 'UACC-62', 'GI50', '> 100 µM (inactive)'),
  ('COC(=O)N/N=C(\C)CC(=O)Nc1cccc([N+](=O)[O-])c1', 'UACC-62', 'GI50', '> 100 µM (inactive)'),
  ('O=C(O)CC12CC3CC(CC(O)(C3)C1)C2', 'UACC-62', 'GI50', '> 100 µM (inactive)'),
  ('COC(=O)c1cc(O)nc(O)n1', 'UACC-62', 'GI50', '> 100 µM (inactive)');

###

test system: T47D; assay: NCI tumour cell line growth inhibition, 48 h
The source made the active and inactive calls. Rule as the data show it: active = GI50 up to about 1.1 µM and inactive = higher. Residues, ends and D or L forms follow the SMILES beside them. *: point of attachment. Boc = CC(C)(C)OC(=O)*; OBn = c1ccc(CO*)cc1
property: GI50

INSERT INTO assay_data (compound, measured) VALUES
  ('OC[C@@H](O)[C@H](O)[C@@H](O)/C=N/Nc1ccc(Cl)nn1', '> 100 µM (inactive)'),
  ('Oc1ccc(-c2nc(-c3cccnc3)c(-c3ccc(F)cc3)[nH]2)cc1', '17.4 µM (inactive)'),
  ('COC(=O)CC(C)(N[S+]([O-])c1ccc(C)cc1)c1ccccc1 (stereo not given)', '> 100 µM (inactive)'),
  ('O=C(/C=C/c1ccccc1)CCN1CCCCC1', '35.5 µM (inactive)'),
  ('Oc1cccc2c1[nH]c1c(C3=C[C@@]4(O)CC/C=C\CCCCN5CC[C@@H]3[C@]3(CC6/C=C\CCCCN6[C@H]34)C5)nccc12 (stereo not given in full)', '0.804 µM (active)'),
  ('COc1cc(/C=C2/CCCc3ccccc3C2=O)cc(OC)c1OC', '5.92 µM (inactive)'),
  ('CCOc1ccccc1NC(=O)C(=O)C(/C(=N/N)C(=O)OC)c1nc2ccc([N+](=O)[O-])cc2nc1O (stereo not given)', '> 100 µM (inactive)'),
  ('CCOC(=O)c1csc(NC(=O)CN2CCCC2)n1', '> 100 µM (inactive)'),
  ('CC(NC(=O)CNC(=O)OC(C)(C)C)C(=O)NC(Cc1ccccc1)C(=O)OCc1ccccc1 (stereo not drawn) (Boc-Gly-Ala-Phe-OBn; configuration not given here)', '> 100 µM (inactive)'),
  ('CC(=O)OCc1cn(S(=O)(=O)c2ccc(C)cc2)cn1', '> 100 µM (inactive)'),
  ('CC(C)N(C(=O)C12C3(C(=O)C(C)(C)C)C4C5(C#N)C3C1(C(=O)C(C)(C)C)C5C42C(=O)C(C)(C)C)C(C)C (stereo not given)', '> 100 µM (inactive)'),
  ('COc1cc(/C=C/c2cc(/C=C/c3ccc(O)c(OC)c3)oc(=O)c2)ccc1O', '0.272 µM (active)'),
  ('CC(C(=O)n1ccnc1)N1c2ccccc2Sc2ccccc21 (stereo not given)', '39.5 µM (inactive)'),
  ('O=C1CC(CC(=O)c2ccc(Br)cc2)C(O)=C1C(=O)c1ccc(Br)cc1 (stereo not given)', '71.6 µM (inactive)'),
  ('C=C(C)C1Cc2c(cc(OC)c3c(=O)c4cccc(O)c4oc23)O1 (stereo not given)', '16.6 µM (inactive)'),
  ('O=C1OCC=C1COC1OC(CO)C(O)C(O)C1O (stereo not given)', '> 100 µM (inactive)'),
  ('N#Cc1nnc2ccccc2c1N', '> 100 µM (inactive)'),
  ('COC1(OC)C=CC2C1C1C=CC2C1(OC)OC (stereo not given)', '> 100 µM (inactive)'),
  ('CCCCCCCC1(N=[N+]=[N-])C(=O)c2ccccc2N(C)C1=O (stereo not given)', '68.9 µM (inactive)'),
  ('O=C(Nc1ccc2[nH]c(C(=O)N3CC(CCl)c4c3cc([N+](=O)[O-])c3ccccc43)cc2c1)Nc1ccc2[nH]c(C(=O)N3CC(CCl)c4c3cc([N+](=O)[O-])c3ccccc43)cc2c1 (stereo not given)', '> 100 µM (inactive)');
